As shown below, each of these molecules has a reported IC50 value.
System: 186277-243-T-J2-PDC spheroids with HUVEC/MSC, viability;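 note: compound exposure lasted seven days before readout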
methodSummary: Anticancer human tumor 186277-243-T-J2-PDC patient-derived colon adenocarcinoma cell line growth inhibition [CLK]
experimentalConditions: curve of first compound; second compound 0.316 µM

molecule: CCN1CCN(Cc2ccc(Nc3ncc(F)c(-c4cc(F)c5nc(C)n(C(C)C)c5c4)n3)nc2)CC1 + CNC(=O)c1ccc(Nc2nc(OC3CCCC3)c3c(-c4ccc5nc(C)oc5c4)c[nH]c3n2)c(OC)c1
measurementName: IC50
measuredValue: > 1000 nM
--
molecule: COc1cccc2c1C(=O)c1c(O)c3c(c(O)c1C2=O)CC(O)(C(=O)CO)CC3OC1CC(N)C(O)C(C)O1 (stereo not given) + CNC(=O)c1ccc(Nc2nc(OC3CCCC3)c3c(-c4ccc5nc(C)oc5c4)c[nH]c3n2)c(OC)c1
measurementName: IC50
measuredValue: 66 nM
--
molecule: CC1(C)CCC(CN2CCN(c3ccc(C(=O)NS(=O)(=O)c4ccc(NCC5CCOCC5)c([N+](=O)[O-])c4)c(Oc4cnc5[nH]ccc5c4)c3)CC2)=C(c2ccc(Cl)cc2)C1 + CN1CCN(c2cc(C(=O)Nc3cc4cc(-c5cnn(C)c5)ccc4cn3)ccn2)CC1
measurementName: IC50
measuredValue: < 31.6 nM
--
molecule: O=C(c1cc(Cc2n[nH]c(=O)c3ccccc23)ccc1F)N1CCN(C(=O)C2CC2)CC1 + CN1CCN(c2cc(C(=O)Nc3cc4cc(-c5cnn(C)c5)ccc4cn3)ccn2)CC1
measurementName: IC50
measuredValue: < 31.6 nM

Shift focus to the following entry.
query: Give the reported IC50 for CC(Nc1ccc2c(c1)OCCn1cc(N3C(=O)OCC3C(F)F)nc1-2)C(N)=O (stereo not given) + CN1CCN(c2cc(C(=O)Nc3cc4cc(-c5cnn(C)c5)ccc4cn3)ccn2)CC1 (system: 186277-243-T-J2-PDC spheroids with HUVEC/MSC, viability).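 Note: compound exposure lasted seven days before readout.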
result: < 31.6 nM
